tgt: T1, recombinant protein consisting of the extracellular domain of human TREM2 fused to the His tag (human, UniProt Q9NZC2 19-174)
T1 construct: also called His tagged hTREM2; His-TREM2
T1 sequence: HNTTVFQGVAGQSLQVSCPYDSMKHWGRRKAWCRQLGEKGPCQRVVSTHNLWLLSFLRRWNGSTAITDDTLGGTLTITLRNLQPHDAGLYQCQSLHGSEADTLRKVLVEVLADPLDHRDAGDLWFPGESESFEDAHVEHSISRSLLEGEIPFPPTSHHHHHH
test_summary: direct ELISA, coated His-TREM2 0.5 ug/mL, Ab stock 1 mg/mL
Procedure: Ninety six-Well ELISA microplate was coated with 0.5 μg/mL, 100 μl/well His tagged hTREM2 diluted in PBS pH 7.4, and incubated at 4° C. overnight. The plate was rinsed three times with 0.05% tween20 in PBS, blocked with 1% BSA in PBS at room temperature (RT) for 1 hr, and rinsed again. The plates was incubated with the anti hTREM2 antibodies (100 μl/well) for 2 hrs at indicated concentration, at RT. […] OD was measured using an ELISA plate reader at dual wavelengths (450 nm and 570 nm)

binder: 60H4A3 (antibody, V domains shown, Biotin conjugated in sup ELISA, cell-based ELISA and flow cytometry) VH: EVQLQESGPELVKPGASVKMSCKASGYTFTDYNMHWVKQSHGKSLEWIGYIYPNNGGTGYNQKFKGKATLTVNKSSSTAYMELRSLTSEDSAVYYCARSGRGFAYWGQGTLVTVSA VL: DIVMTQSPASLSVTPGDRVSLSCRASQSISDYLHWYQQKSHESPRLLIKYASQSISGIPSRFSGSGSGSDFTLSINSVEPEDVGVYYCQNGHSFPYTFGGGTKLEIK
OD at dilution 6561000: 0.113 OD
--
binder: 80E3C7 (antibody, V domains shown, Biotin conjugated in sup ELISA, cell-based ELISA and flow cytometry; also called anti-TREM2 antibody (E3C7); TREM2 Ab E3C7) VH: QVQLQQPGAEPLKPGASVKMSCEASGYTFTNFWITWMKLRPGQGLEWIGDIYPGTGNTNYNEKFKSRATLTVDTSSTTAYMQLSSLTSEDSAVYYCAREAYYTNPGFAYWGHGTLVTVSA VL: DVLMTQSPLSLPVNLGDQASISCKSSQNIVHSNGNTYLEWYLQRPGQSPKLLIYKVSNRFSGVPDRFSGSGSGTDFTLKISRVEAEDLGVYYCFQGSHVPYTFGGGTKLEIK
OD at dilution 6561000: 0.092 OD
